Tested on: broad panel of different clinical isolates
Assay: microbe, parasite or virus in culture
Format: cell-based
Conditions: Enterococcus faecalis, E. faecalis HAV#607; Clinical
Method: Minimum inhibitory concentrations (MICs) were determined by broth microdilution method or agar dilution method following the Clinical and Laboratory Standards Institute guidelines. Standard bacterial strains were obtained from American Type Culture Collection (ATCC). Other bacterial strains were obtained from hospitals and commercial sources, so noted in Table 11. […] Specialized procedures were employed for streptococcal and anaerobic strains. […]
assay-readout: MIC

CC[C@H]1OC(=O)[C@H](C)[C@@H](O[C@H]2C[C@@](C)(OC)[C@@H](O)[C@H](C)O2)[C@H](C)[C@@H](O[C@@H]2O[C@H](C)C[C@H](N(C)C)[C@H]2O)[C@](C)(O)C[C@@H](C)CN(C)[C@H](C)[C@@H](O)[C@]1(C)O [Azithromycin]
> 128 µg/mL

Q: Recorded MIC of CO/N=C(\C(=O)N[C@@H]1C(=O)N2C(C(=O)O)=C(CSc3nc(=O)c(=O)[nH]n3C)CS[C@H]12)c1csc(N)n1 [Ceftriaxone] , please.
Ans: > 256 µg/mL

Q: Recorded MIC of CN[C@H](CC(C)C)C(=O)N[C@H]1C(=O)N[C@@H](CC(N)=O)C(=O)N[C@H]2C(=O)N[C@H]3C(=O)N[C@H](C(=O)N[C@H](C(=O)O)c4cc(O)cc(O)c4-c4cc3ccc4O)[C@H](O)c3ccc(c(Cl)c3)Oc3cc2cc(c3O[C@@H]2O[C@H](CO)[C@@H](O)[C@H](O)[C@H]2O[C@H]2C[C@](C)(N)[C@H](O)[C@H](C)O2)Oc2ccc(cc2Cl)[C@H]1O [Vancomycin] , please.
Ans: > 128 µg/mL

* * *

system: broad panel of different clinical isolates; assay: microbe, parasite or virus in culture; assay type: cell-based; conditions: Enterococcus faecalis, S. faecalis 5060, Line R & Vanco R
assay-readout: MIC

Past entries and their recorded results:
CO/N=C(\C(=O)N[C@@H]1C(=O)N2C(C(=O)O)=C(CSc3nc(=O)c(=O)[nH]n3C)CS[C@H]12)c1csc(N)n1
> 256 µg/mL
CC[C@H]1OC(=O)[C@H](C)[C@@H](O[C@H]2C[C@@](C)(OC)[C@@H](O)[C@H](C)O2)[C@H](C)[C@@H](O[C@@H]2O[C@H](C)C[C@H](N(C)C)[C@H]2O)[C@](C)(O)C[C@@H](C)CN(C)[C@H](C)[C@@H](O)[C@]1(C)O
> 256 µg/mL

Let us examine a further case.
Q: Recorded MIC of "CN[C@H](CC(C)C)C(=O)N[C@H]1C(=O)N[C@@H](CC(N)=O)C(=O)N[C@H]2C(=O)N[C@H]3C(=O)N[C@H](C(=O)N[C@H](C(=O)O)c4cc(O)cc(O)c4-c4cc3ccc4O)[C@H](O)c3ccc(c(Cl)c3)Oc3cc2cc(c3O[C@@H]2O[C@H](CO)[C@@H](O)[C@H](O)[C@H]2O[C@H]2C[C@](C)(N)[C@H](O)[C@H](C)O2)Oc2ccc(cc2Cl)[C@H]1O" , please.
Ans: > 256 µg/mL
